Origin of the recorded values: ChEMBL document CHEMBL1127849

Target: Adrenergic receptor alpha-1 (Rattus norvegicus, UniProt P15823+P23944+P43140)
Experiment: Its affinity towards alpha-1 receptor using [3H]WB-4101 as radioligand in whole brain minus cerebellum
Type: tissue-based
OBSERVABLE: IC50 (nM)
Kindly provide the numeric value in nM only, without the unit symbol.

// query Request: IC50, test system Adrenergic receptor alpha-1 (Rattus norvegicus, UniProt P15823+P23944+P43140), entry CN(CCN1CCC(C(=O)c2ccc(F)cc2)CC1)C(=O)c1noc2ccccc12
// result 108.2

// query Request: IC50, test system Adrenergic receptor alpha-1 (Rattus norvegicus, UniProt P15823+P23944+P43140), entry COc1ccccc1N1CCN(CCCNC(=O)c2nsc3ccccc23)CC1
// result 18.3

// query Request: IC50, test system Adrenergic receptor alpha-1 (Rattus norvegicus, UniProt P15823+P23944+P43140), entry CN(CCN1CCC(c2noc3cc(F)ccc23)CC1)C(=O)c1nsc2ccccc12
// result 9.4

// query Request: IC50, test system Adrenergic receptor alpha-1 (Rattus norvegicus, UniProt P15823+P23944+P43140), entry CN(CCCN1CCC(C(=O)c2ccc(F)cc2)CC1)C(=O)c1nsc2ccccc12
// result 6.11

// query Request: IC50, test system Adrenergic receptor alpha-1 (Rattus norvegicus, UniProt P15823+P23944+P43140), entry O=C(NCCN1CCN(Cc2ccccc2)CC1)c1nsc2ccccc12
// result 2570

// query Request: IC50, test system Adrenergic receptor alpha-1 (Rattus norvegicus, UniProt P15823+P23944+P43140), entry CN(CCN1CCC(C(=O)c2ccc(F)cc2)CC1)C(=O)c1nsc2ccccc12
// result 75.3

// query Request: IC50, test system Adrenergic receptor alpha-1 (Rattus norvegicus, UniProt P15823+P23944+P43140), entry CN(CCCCN1CCC(c2noc3cc(F)ccc23)CC1)C(=O)c1nsc2ccccc12
// result 174

// query Request: IC50, test system Adrenergic receptor alpha-1 (Rattus norvegicus, UniProt P15823+P23944+P43140), entry CC(C)N(CCCN1CCC(C(=O)c2ccc(F)cc2)CC1)C(=O)c1noc2ccccc12
// result 124

// query Request: IC50, test system Adrenergic receptor alpha-1 (Rattus norvegicus, UniProt P15823+P23944+P43140), entry COc1ccccc1N1CCN(CCNC(=O)c2nsc3ccccc23)CC1
// result 4.1

// query Request: IC50, test system Adrenergic receptor alpha-1 (Rattus norvegicus, UniProt P15823+P23944+P43140), entry COc1ccccc1N1CCN(CCNC(=O)c2noc3ccccc23)CC1
// result 2.1
